Some compounds, each annotated with its measured max response.
# Test system: KB-3-1
# assay info: Cytotoxic Profiling of Annotated Libraries Using Quantitative High-Throughput Screening (AID 1296008); further: on the % scale 0 is the no-effect control and ±100 the full control effect; nearly all actives have a fitted effect of over 60% in size
# condition info: Five cell lines viability, CellTiter-Glo ATP luminescence, 48-72 h; hits give low values
# Procedure: Cell-based phenotypic screening is a commonly used approach to discover biological pathways, novel drug targets, chemical probes and high-quality hit-to-lead molecules. […] A pintool (Kalypsys) was used to transfer 23 nL of compound solution to the 1536-well assay plates. […] Plates were left at room temperature for 10 min before imaging the ATP-coupled luminescence using a ViewLux microplate imager (PerkinElmer, Waltham, MA).
Records with an inconclusive call do not appear.
Return type: number; implicit unit %.

Use these answered entries as a reference point.
CC(C)[C@@H](N)C(=O)O	-13.9
OCCCNc1ccccc1	2.06
C=CCN1CCCC1CNC(=O)c1cc(S(N)(=O)=O)cc(OC)c1OC (stereo unspecified)	5.61
O=C(CCCN1CCC(C(=O)c2ccc(F)cc2)CC1)c1ccc(F)cc1	33.7
NC(=O)[C@H]1O[C@@H](O)[C@H](O)[C@@H](O)[C@@H]1O	4.29
CNCC(O)c1ccc(OC(=O)C(C)(C)C)c(OC(=O)C(C)(C)C)c1 (stereo unspecified)	-7.58
CC[C@@H](C)[C@H](N)C(=O)O	-7.63
N#Cc1ccc2c(c1)N(CCCN1CCC(O)CC1)c1ccccc1S2	1.4
Cc1cc2nc3c(=O)[nH]c(=O)nc-3n(C[C@H](O)[C@H](O)[C@H](O)COP(=O)(O)OP(=O)(O)OC[C@H]3O[C@@H](n4cnc5c(N)ncnc54)[C@H](O)[C@@H]3O)c2cc1C	-11
COc1ccc([C@@H]2CC(=O)c3c(O)cc(O[C@@H]4O[C@H](CO[C@@H]5O[C@@H](C)[C@H](O)[C@@H](O)[C@H]5O)[C@@H](O)[C@H](O)[C@H]4O)cc3O2)cc1O	-3.21

Input: What does the record list as max response for "c1ccc2c(c1)Sc1ccccc1N2CCN1CCCC1" ?
Output: -12.7

Input: What does the record list as max response for "O=C1c2ccccc2C(=O)C1c1ccc(Cl)cc1" ?
Output: -7.12

----------
# assay info: S16 Schwann cell viability assay (CellTiter-Glo assay) (AID 624031);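 further: native untransfected S16 rat Schwann cells; cellular ATP luminescence as a viability measure; plate controls were DMSO-treated cells for no effect and cell-free wells for full effect; nearly all actives have a fitted effect of over 70% in size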
# condition info: S16 rat Schwann cells viability, 24 h; series mostly up to 57.5 µM
Inconclusive results are not listed. The source made the active and inactive calls. The call rests on the fitted dose curve; in most records, active means well fitted cell-killing curve with a large enough effect; inconclusive means small, poorly fitted or top-dose-only effect, or effect the other way; inactive means flat fitted curve, though single readings scatter.
reported metric: outcome

Use these answered entries as a reference point.
O=C(O)COc1ccc(CCNS(=O)(=O)c2ccccc2)s1	inactive
NC(=O)C1c2ccccc2CCc2ccccc21	inactive
[O-][N+](=Nc1ccccc1)c1ccccc1	inactive
C=CC(=O)O	inactive
C[C@]12CCC(=O)C[C@@H]1CC[C@@H]1[C@@H]2CC[C@]2(C)C=CC[C@@H]12	inactive
CCCCCCOC(=O)c1cccnc1	inactive
ClC(Cl)Cl	inactive
CC(C)NCC(O)COc1ccccc1-n1cccc1 (stereo not drawn)	inactive
CCN(CC)CCC(=O)N1c2ccccc2Sc2ccc(C(F)(F)F)cc21	inactive
NC(=O)[C@H]1O[C@@H](O)[C@H](O)[C@@H](O)[C@@H]1O	inactive

Input: What does the record list as outcome for "CCCCC[C@H](O)/C=C/[C@@H]1[C@H]2C/C(=C/CCCC(=O)O)O[C@H]2C[C@H]1O" ?
Output: inactive

Input: What does the record list as outcome for CCC(O)c1ccccc1 (stereo not drawn) ?
Output: inactive

Input: What does the record list as outcome for "NC(=O)CC[C@@H]1NC(=O)[C@H](Cc2ccccc2)NC(=O)[C@H](Cc2ccc(O)cc2)NC(=O)[C@@H](N)CSSC[C@@H](C(=O)N2CCC[C@H]2C(=O)N[C@@H](CCCN=C(N)N)C(=O)NCC(N)=O)NC(=O)[C@H](CC(N)=O)NC1=O" ?
Output: inactive

Input: What does the record list as outcome for "CSc1nc2cc(Oc3cccc(Cl)c3Cl)c(Cl)cc2[nH]1" ?
Output: inactive

Input: What does the record list as outcome for "Nc1ncnc2c1ncn2CCOCP(=O)(O)O" ?
Output: inactive

----------
# Test system: ATS189
# assay info: qHTS profiling for inhibitors of Plasmodium falciparum proliferation (AID 504749); further: nearly all actives have a fitted effect of over 60% in size
# condition info: P. falciparum in erythrocytes, SYBR Green DNA, 72 h; series mostly up to 28.7 µM
Results filed as inconclusive are left out. The source made the active and inactive calls. The call rests on the fitted dose curve; in most records, active means well fitted inhibition curve with a large enough effect; inconclusive means small, poorly fitted or top-dose-only effect; inactive means flat fitted curve, though single readings scatter.
Give one outcome, nothing more. List: label 1 = active, label 0 = inactive

Use the examples below as a reference point.
Cc1ncc(COP(=O)(O)O)c(CN)c1O	label 0
CCCCC(CC)COS(=O)(=O)O (stereo unspecified)	label 0
CS(=O)(=O)OCC(O)C(O)COS(C)(=O)=O (stereo unspecified)	label 0

Input: Tell me the assay call for CCCCCCCCCCCC(=O)OCC(O)CO (stereo unspecified) please.
Output: label 0

Input: Tell me the assay call for "CCOC(=O)c1c[nH]c2cc(OCC(C)C)c(OCC(C)C)cc2c1=O" please.
Output: label 1

Input: Tell me the assay call for "Cc1ccc(S(=O)(=O)O)cc1C" please.
Output: label 0

Input: Tell me the assay call for "O=C(O)CCC/C=C\C[C@@H]1[C@@H](/C=C/[C@@H](O)COc2cccc(Cl)c2)[C@H](O)C[C@@H]1O" please.
Output: label 0

Input: Tell me the assay call for "O=C1NCCN1c1ncc([N+](=O)[O-])s1" please.
Output: label 0

Input: Tell me the assay call for "NC(N)=O" please.
Output: label 0

----------
# assay info: qHTS assay to identify small molecule inhibitors of chordoma cells - UCH-1 (AID 1259355); further: nearly all actives have a fitted effect of over 55% in size
# condition info: UCH-1 chordoma viability, CellTiter-Glo, 48 h, combination, with auranofin plus four topoisomerase inhibitors; series mostly up to 46.1 µM
Records with an inconclusive call do not appear. Active and inactive are the calls of the source. The call rests on the fitted dose curve; in most records, active means well fitted cell-killing curve with a large enough effect; inconclusive means small, poorly fitted or top-dose-only effect, or effect the other way; inactive means no such curve, though single readings can be large or run the other way. Where a SMILES comes first, the peptide text is derived from it. [ ]: non-standard residue; d: D form. pGlu = O=C1CC[C@@H](C(=O)O)N1
Give one outcome, nothing more. List: 1 (yes) for active, 0 (no) for inactive

CC(=C\c1ccccc1)/C=C1/SC(=S)N(CC(=O)O)C1=O	0 (no)
Cc1c(O)c(=O)ccn1C	0 (no)
O=C(O)c1ccc(NC2OC[C@@H](O)[C@H](O)[C@H]2O)cc1 (some centres not stated)	0 (no)
CC1(C)S[C@@H]2[C@H](NC(=O)C3(N)CCCCC3)C(=O)N2[C@H]1C(=O)O	0 (no)
CCCCCCCCCCCC(=O)OCC(O)CO (configuration not stated)	0 (no)

Input: Tell me the assay call for "CC(=O)N[C@@H](C=O)[C@@H](O)[C@H](O)[C@H](O)CO" please.
Output: 0 (no)

Input: Tell me the assay call for "CN(C)c1ccc(C(=C2C=CC(=[N+](C)C)C=C2)c2c(O)c(S(=O)(=O)[O-])cc3cc(S(=O)(=O)O)ccc23)cc1" please.
Output: 1 (yes)

Input: Tell me the assay call for CC[C@H](C)[C@H](NC(=O)[C@H](Cc1ccccc1)NC(=O)[C@H](C)NC(=O)[C@H](CC(=O)O)NC(=O)[C@H](CCCCN)NC(=O)[C@H](CO)NC(=O)[C@@H]1CCCN1C(=O)[C@@H]1CCC(=O)N1)C(=O)NCC(=O)N[C@@H](CC(C)C)C(=O)N[C@@H](CCSC)C(N)=O ([pGlu]PSKDAFIGLM-NH2) please.
Output: 0 (no)

Input: Tell me the assay call for "CCN(CC)C(=O)[C@]1(c2ccccc2)C[C@@H]1CN" please.
Output: 0 (no)

Input: Tell me the assay call for "C[C@]12CC[C@@H]3c4ccc(OC(=O)c5ccccc5)cc4CC[C@H]3[C@@H]1CC[C@@H]2O" please.
Output: 0 (no)

Input: Tell me the assay call for "OB(O)O" please.
Output: 0 (no)

Input: Tell me the assay call for "CN1CCc2c(c3ccccc3n2Cc2ccccc2)C1" please.
Output: 0 (no)

Input: Tell me the assay call for "O=C(O)CCC/C=C\C[C@@H]1[C@@H](/C=C/[C@@H](O)COc2cccc(C(F)(F)F)c2)[C@H](O)C[C@@H]1O" please.
Output: 0 (no)

----------
# assay info: Cellular Toxicity (caspase-3) Mesangial (AID 660);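 further: combined caspase 3 and 7 activity read by Caspase-Glo luminescence; cells exposed to compound for 16 h before the caspase read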
# condition info: mesangial cells, normalized: DMSO 0%, 100 µM tamoxifen 100%; series mostly up to 91.7 µM
The source made the active and inactive calls. Calls follow the shape of the dose curve; as a rule, active = well fitted activation curve with a large enough effect; inconclusive = small, poorly fitted or top-dose-only effect; inactive = flat fitted curve, though single readings scatter.
reported metric: outcome

CC1=CC(=O)NS(=O)(=O)O1	inactive
O=c1n(CC2CO2)c(=O)n(CC2CO2)c(=O)n1CC1CO1 (centres undefined)	inactive
CC1=CCC2CC1C2(C)C (centres undefined)	inactive
OCl	inactive
C[C@H](CCC(=O)O)[C@H]1CC[C@H]2[C@@H]3CC[C@@H]4C[C@H](O)CC[C@]4(C)[C@H]3C[C@H](O)[C@]12C	inactive

Input: What does the record list as outcome for "NCCN" ?
Output: inactive

Input: What does the record list as outcome for "Cc1ncc[nH]1" ?
Output: inactive

Input: What does the record list as outcome for "COC(=O)c1ccccc1O" ?
Output: inactive

Input: What does the record list as outcome for "Cc1ccc(S(=O)(=O)O)cc1C" ?
Output: inactive

Values were extracted from PubChem BioAssay (NCATS).
